Tgt: glucagon receptor (GCGR) (human, UniProt P47871 26-477)
Sequence (P47871 26-477): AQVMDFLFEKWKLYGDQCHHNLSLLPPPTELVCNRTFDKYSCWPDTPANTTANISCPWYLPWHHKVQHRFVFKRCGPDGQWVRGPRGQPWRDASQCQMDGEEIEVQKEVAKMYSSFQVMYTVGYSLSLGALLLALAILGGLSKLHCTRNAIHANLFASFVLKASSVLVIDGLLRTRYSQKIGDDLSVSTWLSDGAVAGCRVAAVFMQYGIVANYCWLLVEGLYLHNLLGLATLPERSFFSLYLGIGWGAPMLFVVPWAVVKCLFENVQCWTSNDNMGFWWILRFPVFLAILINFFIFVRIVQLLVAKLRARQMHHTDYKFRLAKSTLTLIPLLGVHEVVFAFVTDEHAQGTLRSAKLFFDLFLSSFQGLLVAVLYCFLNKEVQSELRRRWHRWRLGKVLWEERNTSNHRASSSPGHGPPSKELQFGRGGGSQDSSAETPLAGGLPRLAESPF
Procedure Summary: cell-based or functional assay
Starred links: 1 amine or outer side, 2 acyl side, 3 side chain; linkers in the order of their positions; H or OH if unused. Non-standard residues stand in square brackets, D forms with d. Groups on a side chain read outwards from the residue. Primed or numbered codes have the meaning given here. No end group written: not given here. *: point of attachment. Dodecanoyl(12-OPh(4-COOH)) = O=C(O)c1ccc(OCCCCCCCCCCCC(=O)*)cc1; γGlu = O=C(O)[C@H](CCC(=O)[*:2])N[*:1]; Stearoyl = CCCCCCCCCCCCCCCCCC(=O)*; αMeF = C[C@](N)(Cc1ccccc1)C(=O)O; αMeK = C[C@](N)(CCCCN)C(=O)O; αMeS = C[C@](N)(CO)C(=O)O; PEG2′ = not defined here; Aib = CC(C)(N)C(=O)O
Measurement Name: cAMP Primary assay EC50 Gluc-R (nM)

[[record]]
binder = "H[Aib]EK([PEG2′-PEG2′-γGlu-Stearoyl])S[αMeF]TSDV[αMeS]S[αMeF]LEGEAA[αMeK]E[αMeF]IA[αMeF]VV[αMeK]GG-NH2 [SEQ ID NO 125]"
measurement_name = "cAMP Primary assay EC50 Gluc-R"
endpoint_result = 25

[[record]]
binder = "H[Aib]EGS[αMeF]TSDV[αMeS]S[αMeF]LEGEAA[αMeK]E[αMeF]IA[αMeF]VV[αMeK]GK([PEG2′-PEG2′-γGlu-Stearoyl])-NH2 [SEQ ID NO 99]"
measurement_name = "cAMP Primary assay EC50 Gluc-R"
endpoint_result = 25

[[record]]
binder = "H[Aib]EGS[αMeF]TSDV[αMeS]S[αMeF]LEGEAA[αMeK]E[αMeF]IAK([PEG2′-PEG2′-γGlu-Stearoyl])VV[αMeK]GG-NH2 [SEQ ID NO 104]"
measurement_name = "cAMP Primary assay EC50 Gluc-R"
endpoint_result = 26

[[record]]
binder = "H[Aib]EGS[αMeF]TSDV[αMeS]S[αMeF]LEGEAAK([PEG2′-PEG2′-PEG2′-Dodecanoyl(12-OPh(4-COOH))])E[αMeF]IA[αMeF]VV[αMeK]GG-NH2 [SEQ ID NO 145]"
measurement_name = "cAMP Primary assay EC50 Gluc-R"
endpoint_result = 25

